Please respond with reported pIC50 for every item in the list.
Molecular target: Receptor-type tyrosine-protein phosphatase gamma (Homo sapiens, UniProt P23470)
Sequence (P23470 whole entry): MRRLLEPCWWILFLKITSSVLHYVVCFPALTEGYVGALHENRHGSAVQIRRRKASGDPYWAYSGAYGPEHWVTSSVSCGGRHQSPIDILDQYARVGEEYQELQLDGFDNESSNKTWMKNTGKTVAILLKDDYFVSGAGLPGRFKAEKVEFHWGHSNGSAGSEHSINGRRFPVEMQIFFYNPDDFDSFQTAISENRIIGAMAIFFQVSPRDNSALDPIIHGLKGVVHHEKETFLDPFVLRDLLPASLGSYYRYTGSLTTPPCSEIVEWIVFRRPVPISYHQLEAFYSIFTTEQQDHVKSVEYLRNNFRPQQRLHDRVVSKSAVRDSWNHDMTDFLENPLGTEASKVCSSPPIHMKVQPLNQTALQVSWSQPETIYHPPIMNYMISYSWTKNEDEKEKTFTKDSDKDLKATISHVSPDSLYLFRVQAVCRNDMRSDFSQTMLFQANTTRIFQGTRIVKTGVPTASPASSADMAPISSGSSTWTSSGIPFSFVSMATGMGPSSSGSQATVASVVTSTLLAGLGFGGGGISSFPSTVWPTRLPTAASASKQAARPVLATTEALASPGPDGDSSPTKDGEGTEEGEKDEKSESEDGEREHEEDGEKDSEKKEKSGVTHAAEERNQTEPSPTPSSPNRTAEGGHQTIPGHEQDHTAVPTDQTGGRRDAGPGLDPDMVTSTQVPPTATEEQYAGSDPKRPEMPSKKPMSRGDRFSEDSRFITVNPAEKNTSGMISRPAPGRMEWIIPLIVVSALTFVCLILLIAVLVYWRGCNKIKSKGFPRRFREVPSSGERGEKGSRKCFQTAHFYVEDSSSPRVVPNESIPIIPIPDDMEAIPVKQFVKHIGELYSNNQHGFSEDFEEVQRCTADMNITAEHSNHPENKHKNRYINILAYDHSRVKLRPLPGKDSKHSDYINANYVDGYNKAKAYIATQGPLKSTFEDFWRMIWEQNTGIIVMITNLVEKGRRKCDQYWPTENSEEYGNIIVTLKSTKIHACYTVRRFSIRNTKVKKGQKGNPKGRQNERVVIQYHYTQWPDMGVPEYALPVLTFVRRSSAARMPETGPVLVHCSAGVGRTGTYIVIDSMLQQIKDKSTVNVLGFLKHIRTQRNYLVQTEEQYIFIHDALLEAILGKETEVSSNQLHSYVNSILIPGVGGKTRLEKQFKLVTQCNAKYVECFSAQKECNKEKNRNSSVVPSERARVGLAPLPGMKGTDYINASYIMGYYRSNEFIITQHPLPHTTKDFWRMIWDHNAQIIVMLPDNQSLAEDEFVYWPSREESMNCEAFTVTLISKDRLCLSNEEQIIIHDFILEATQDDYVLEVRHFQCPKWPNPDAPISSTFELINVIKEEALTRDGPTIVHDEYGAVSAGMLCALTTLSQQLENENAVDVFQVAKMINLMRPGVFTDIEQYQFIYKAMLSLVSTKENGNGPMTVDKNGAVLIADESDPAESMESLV
pIC50: −log10 of the molar value.

Consider the following illustrative entries.
Cc1c(Br)cc(NC(=O)C(c2ccccc2)S(=O)(=O)O)cc1Br (centres undefined) | < 3.70
O=C(Nc1ccc(-n2ccnc2)cc1)C(c1ccccc1)S(=O)(=O)O (centres undefined) | < 4.00
O=C(Nc1cc(C(F)(F)F)cc(C(F)(F)F)c1)C(c1ccccc1)S(=O)(=O)O (centres undefined) | < 3.70

Moving on to another compound below.
Exercise: What pIC50 value was documented for this compound, O=C(Nc1nc2ccc([N+](=O)[O-])cc2s1)C(c1ccccc1)S(=O)(=O)O (centres undefined) ?
Solution: < 4.00

###

Test: Inhibition of His-tagged PTP-H1 (unknown origin) expressed in Escherichia coli BL21 cells using para-nitrophenyl phosphate as substrate incubated for 5 to 10 mins by microplate reader based spectrophotometric analysis
Set-up: species or system Homo sapiens
pIC50: −log10 of the molar value.
observed property: pIC50

O=C(Nc1cnc2ccccc2c1)C(c1ccccc1)S(=O)(=O)O (centres undefined) | < 3.70
Cc1c(Br)cc(NC(=O)C(c2ccccc2)S(=O)(=O)O)cc1Br (centres undefined) | < 3.70
O=C(Nc1nc2ccccc2s1)C(c1ccccc1)S(=O)(=O)O (centres undefined) | < 3.70

Give me pIC50 for each of these molecules, listed below.
1. O=C(Nc1nc2ccc([N+](=O)[O-])cc2s1)C(c1ccccc1)S(=O)(=O)O (centres undefined)
2. O=C(Nc1ccc(N2CCOCC2)cc1)C(c1ccccc1)S(=O)(=O)O (centres undefined)
3. O=C(Nc1cc(C(F)(F)F)cc(C(F)(F)F)c1)C(c1ccccc1)S(=O)(=O)O (centres undefined)

Solution:
1. < 4.00
2. < 3.70
3. < 3.70

State recorded pIC50 for all listed molecules.
1. O=C(Nc1ccc(-n2ccnc2)cc1)C(c1ccccc1)S(=O)(=O)O (centres undefined)
2. O=C(Nc1ccc2nc(C(F)(F)F)[nH]c2c1)C(c1ccccc1)S(=O)(=O)O (centres undefined)
3. O=C(Nc1ccc(OCc2ccccc2)c(Cl)c1)C(c1ccccc1)S(=O)(=O)O (centres undefined)

Solution:
1. < 4.00
2. < 3.70
3. < 3.70

###

Molecular target: Tyrosine-protein phosphatase non-receptor type 22 (Homo sapiens, UniProt Q9Y2R2)
Sequence (Q9Y2R2 whole entry): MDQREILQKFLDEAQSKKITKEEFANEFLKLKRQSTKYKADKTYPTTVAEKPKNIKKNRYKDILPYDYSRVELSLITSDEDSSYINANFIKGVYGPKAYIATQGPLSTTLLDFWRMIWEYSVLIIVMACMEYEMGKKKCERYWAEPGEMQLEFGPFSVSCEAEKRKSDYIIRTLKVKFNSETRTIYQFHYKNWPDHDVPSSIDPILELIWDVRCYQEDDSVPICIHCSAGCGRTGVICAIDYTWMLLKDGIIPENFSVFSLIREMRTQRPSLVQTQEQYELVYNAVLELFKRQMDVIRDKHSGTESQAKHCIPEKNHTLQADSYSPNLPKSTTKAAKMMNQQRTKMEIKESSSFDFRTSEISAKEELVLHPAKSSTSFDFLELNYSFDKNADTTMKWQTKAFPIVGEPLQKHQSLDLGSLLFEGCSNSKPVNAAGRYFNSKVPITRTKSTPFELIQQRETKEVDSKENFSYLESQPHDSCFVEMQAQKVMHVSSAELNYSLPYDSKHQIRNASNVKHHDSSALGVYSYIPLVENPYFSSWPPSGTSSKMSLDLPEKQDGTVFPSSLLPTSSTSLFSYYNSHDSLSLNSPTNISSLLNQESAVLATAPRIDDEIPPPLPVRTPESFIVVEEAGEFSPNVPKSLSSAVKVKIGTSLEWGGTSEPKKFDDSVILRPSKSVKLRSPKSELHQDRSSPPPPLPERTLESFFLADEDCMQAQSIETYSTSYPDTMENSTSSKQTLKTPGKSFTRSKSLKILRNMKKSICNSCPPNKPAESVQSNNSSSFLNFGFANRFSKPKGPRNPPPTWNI
pIC50: −log10 of the molar value.
Answer each item with its documented pIC50.

Would you please look over these solved cases?
O=C(Nc1nc2ccc([N+](=O)[O-])cc2s1)C(c1ccccc1)S(=O)(=O)O (centres undefined) | < 4.00
Cc1c(Br)cc(NC(=O)C(c2ccccc2)S(=O)(=O)O)cc1Br (centres undefined) | < 3.70

# batch: return pIC50 for each of the 2 compounds below
1. O=C(Nc1cc(C(F)(F)F)cc(C(F)(F)F)c1)C(c1ccccc1)S(=O)(=O)O (centres undefined)
2. O=C(Nc1ccc(-n2ccnc2)cc1)C(c1ccccc1)S(=O)(=O)O (centres undefined)

Solution:
1: < 3.70; 2: < 4.00

###

Would you kindly list IC50 for each of these molecules?
Target: Tyrosine-protein phosphatase non-receptor type 2 (Homo sapiens, UniProt P17706)
Sequence (P17706 whole entry): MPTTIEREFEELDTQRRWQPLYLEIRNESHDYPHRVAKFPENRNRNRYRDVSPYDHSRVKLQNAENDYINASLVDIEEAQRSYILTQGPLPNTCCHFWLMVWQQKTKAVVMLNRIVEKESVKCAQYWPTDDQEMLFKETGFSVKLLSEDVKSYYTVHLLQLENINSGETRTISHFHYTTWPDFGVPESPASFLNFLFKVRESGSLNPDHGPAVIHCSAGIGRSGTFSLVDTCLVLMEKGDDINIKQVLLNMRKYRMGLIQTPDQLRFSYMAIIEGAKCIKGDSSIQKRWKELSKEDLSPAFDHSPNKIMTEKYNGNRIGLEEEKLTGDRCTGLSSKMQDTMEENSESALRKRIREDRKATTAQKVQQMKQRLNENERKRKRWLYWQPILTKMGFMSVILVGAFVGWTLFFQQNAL

Illustrative cases are given below, each with its answer.
O=C(Nc1ccc(-n2ccnc2)cc1)C(c1ccccc1)S(=O)(=O)O (stereo not given) | > 100 µM
O=C(Nc1ccc(OCc2ccccc2)c(Cl)c1)C(c1ccccc1)S(=O)(=O)O (stereo not given) | > 200 µM
O=C(Nc1cc(C(F)(F)F)cc(C(F)(F)F)c1)C(c1ccccc1)S(=O)(=O)O (stereo not given) | > 200 µM
Cc1c(Br)cc(NC(=O)C(c2ccccc2)S(=O)(=O)O)cc1Br (stereo not given) | > 200 µM

Kindly consider the entry below.
Exercise: What value of IC50 has been reported for the following molecule? O=C(Nc1nc2ccc([N+](=O)[O-])cc2s1)C(c1ccccc1)S(=O)(=O)O (stereo not given)
Solution: > 100 µM

###

Give IC50 for every item shown.
Molecular target: Receptor-type tyrosine-protein phosphatase F (Homo sapiens, UniProt P10586)
Sequence (P10586 whole entry): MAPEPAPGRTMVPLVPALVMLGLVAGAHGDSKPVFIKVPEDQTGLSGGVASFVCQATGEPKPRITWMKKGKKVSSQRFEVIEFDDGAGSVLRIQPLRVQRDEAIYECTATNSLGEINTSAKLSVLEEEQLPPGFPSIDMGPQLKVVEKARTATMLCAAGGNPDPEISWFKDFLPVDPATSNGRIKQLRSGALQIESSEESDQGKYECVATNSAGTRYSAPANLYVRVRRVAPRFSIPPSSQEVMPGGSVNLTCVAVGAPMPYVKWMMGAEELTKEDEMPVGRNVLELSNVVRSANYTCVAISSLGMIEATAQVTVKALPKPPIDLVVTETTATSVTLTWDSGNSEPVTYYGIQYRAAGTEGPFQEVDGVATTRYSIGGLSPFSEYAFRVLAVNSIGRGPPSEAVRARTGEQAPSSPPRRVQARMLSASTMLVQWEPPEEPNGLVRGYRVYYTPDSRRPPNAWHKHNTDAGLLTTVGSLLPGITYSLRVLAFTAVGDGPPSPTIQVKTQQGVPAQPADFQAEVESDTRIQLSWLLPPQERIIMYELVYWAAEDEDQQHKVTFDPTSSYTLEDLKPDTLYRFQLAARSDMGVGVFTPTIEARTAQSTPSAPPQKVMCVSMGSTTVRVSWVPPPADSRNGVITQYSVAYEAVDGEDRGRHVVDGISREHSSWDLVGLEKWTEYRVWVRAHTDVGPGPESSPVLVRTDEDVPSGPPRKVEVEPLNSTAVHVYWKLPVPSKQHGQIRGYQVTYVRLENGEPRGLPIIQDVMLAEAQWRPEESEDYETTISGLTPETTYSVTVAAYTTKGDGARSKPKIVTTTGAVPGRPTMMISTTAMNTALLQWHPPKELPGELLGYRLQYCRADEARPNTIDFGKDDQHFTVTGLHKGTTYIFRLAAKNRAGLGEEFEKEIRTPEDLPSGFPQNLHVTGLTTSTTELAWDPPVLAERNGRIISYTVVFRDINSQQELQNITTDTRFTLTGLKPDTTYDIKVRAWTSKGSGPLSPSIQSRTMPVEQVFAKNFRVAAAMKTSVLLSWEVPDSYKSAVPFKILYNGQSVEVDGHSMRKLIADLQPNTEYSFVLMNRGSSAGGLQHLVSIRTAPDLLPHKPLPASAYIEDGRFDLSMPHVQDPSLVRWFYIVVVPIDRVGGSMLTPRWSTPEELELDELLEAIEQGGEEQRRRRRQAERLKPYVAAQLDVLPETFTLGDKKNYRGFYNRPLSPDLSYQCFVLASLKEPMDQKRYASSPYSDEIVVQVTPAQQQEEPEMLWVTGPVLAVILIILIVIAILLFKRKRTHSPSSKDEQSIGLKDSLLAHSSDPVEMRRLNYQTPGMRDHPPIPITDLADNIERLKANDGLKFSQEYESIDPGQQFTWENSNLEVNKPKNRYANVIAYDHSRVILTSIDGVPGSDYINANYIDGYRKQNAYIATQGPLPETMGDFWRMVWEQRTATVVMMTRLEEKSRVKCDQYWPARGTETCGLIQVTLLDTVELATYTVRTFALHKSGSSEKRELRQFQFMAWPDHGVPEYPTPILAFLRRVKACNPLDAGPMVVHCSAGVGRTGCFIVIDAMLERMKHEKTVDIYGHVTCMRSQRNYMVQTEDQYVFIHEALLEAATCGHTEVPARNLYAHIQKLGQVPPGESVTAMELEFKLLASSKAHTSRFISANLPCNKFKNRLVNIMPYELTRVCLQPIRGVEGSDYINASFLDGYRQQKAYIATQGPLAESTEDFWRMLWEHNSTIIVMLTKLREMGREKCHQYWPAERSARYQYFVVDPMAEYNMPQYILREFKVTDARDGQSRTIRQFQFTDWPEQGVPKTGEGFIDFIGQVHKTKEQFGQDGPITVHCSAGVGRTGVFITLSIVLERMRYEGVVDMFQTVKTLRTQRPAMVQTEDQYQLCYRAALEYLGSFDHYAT

Recorded results for 3 molecules are shown here.
Cc1c(Br)cc(NC(=O)C(c2ccccc2)S(=O)(=O)O)cc1Br (centres undefined) | > 200 µM
O=C(Nc1cc(C(F)(F)F)cc(C(F)(F)F)c1)C(c1ccccc1)S(=O)(=O)O (centres undefined) | > 200 µM
O=C(Nc1nc2ccc([N+](=O)[O-])cc2s1)C(c1ccccc1)S(=O)(=O)O (centres undefined) | > 100 µM

Exercise: What does the data say about its IC50? Entry: O=C(Nc1ccc(-n2ccnc2)cc1)C(c1ccccc1)S(=O)(=O)O (centres undefined)
Solution: > 100 µM

###

Target: Tyrosine-protein phosphatase non-receptor type 6 (Homo sapiens)
Sequence (P29350 whole entry): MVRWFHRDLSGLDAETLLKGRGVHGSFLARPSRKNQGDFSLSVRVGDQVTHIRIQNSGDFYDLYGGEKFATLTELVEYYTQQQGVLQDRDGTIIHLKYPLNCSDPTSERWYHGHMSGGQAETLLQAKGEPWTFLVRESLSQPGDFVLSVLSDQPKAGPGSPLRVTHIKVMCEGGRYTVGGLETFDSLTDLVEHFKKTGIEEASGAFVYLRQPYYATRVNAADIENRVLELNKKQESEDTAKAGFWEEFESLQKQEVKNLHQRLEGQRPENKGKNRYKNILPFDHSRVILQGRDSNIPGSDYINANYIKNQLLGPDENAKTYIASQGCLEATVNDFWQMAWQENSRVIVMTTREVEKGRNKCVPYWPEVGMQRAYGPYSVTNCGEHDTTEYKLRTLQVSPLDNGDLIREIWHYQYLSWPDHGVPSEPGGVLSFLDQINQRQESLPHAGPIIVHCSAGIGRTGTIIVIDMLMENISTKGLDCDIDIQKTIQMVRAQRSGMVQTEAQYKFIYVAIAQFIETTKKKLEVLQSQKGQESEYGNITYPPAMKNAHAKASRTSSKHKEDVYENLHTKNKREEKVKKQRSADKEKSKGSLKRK
observed property: IC50

O=C(Nc1cc(C(F)(F)F)cc(C(F)(F)F)c1)C(c1ccccc1)S(=O)(=O)O (centres undefined) | > 200 µM

// each molecule listed below needs its IC50
1. O=C(Nc1nc2ccc([N+](=O)[O-])cc2s1)C(c1ccccc1)S(=O)(=O)O (centres undefined)
2. Cc1c(Br)cc(NC(=O)C(c2ccccc2)S(=O)(=O)O)cc1Br (centres undefined)

Solution:
1. > 100 µM
2. > 200 µM

Exercise: Please give the measured IC50 for this molecule: O=C(Nc1ccc(-n2ccnc2)cc1)C(c1ccccc1)S(=O)(=O)O (centres undefined)
Solution: > 100 µM

###

Could you please report measured pIC50 for the items listed next?
Biological target: Tyrosine-protein phosphatase non-receptor type 1 (Homo sapiens, UniProt P18031)
Sequence (P18031 whole entry): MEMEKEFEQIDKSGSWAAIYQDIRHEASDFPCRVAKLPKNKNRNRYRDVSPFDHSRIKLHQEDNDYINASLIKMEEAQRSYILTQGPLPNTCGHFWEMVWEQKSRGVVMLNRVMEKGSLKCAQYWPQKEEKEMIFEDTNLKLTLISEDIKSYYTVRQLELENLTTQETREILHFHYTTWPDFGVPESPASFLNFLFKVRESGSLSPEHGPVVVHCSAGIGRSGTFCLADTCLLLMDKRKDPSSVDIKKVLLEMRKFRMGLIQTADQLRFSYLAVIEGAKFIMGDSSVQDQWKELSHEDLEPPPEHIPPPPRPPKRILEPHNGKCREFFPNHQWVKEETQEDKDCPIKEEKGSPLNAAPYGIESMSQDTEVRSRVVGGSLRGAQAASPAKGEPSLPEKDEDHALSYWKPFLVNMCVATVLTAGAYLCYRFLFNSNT
pIC50: −log10 of the molar value.

Solved entries (count: 3):
Cc1c(Br)cc(NC(=O)C(c2ccccc2)S(=O)(=O)O)cc1Br (centres undefined) | < 3.70
O=C(Nc1cc(C(F)(F)F)cc(C(F)(F)F)c1)C(c1ccccc1)S(=O)(=O)O (centres undefined) | < 3.70
O=C(Nc1nc2ccc([N+](=O)[O-])cc2s1)C(c1ccccc1)S(=O)(=O)O (centres undefined) | < 4.00

Now turn to the next molecule.
Exercise: Give the measured pIC50 of O=C(Nc1ccc(-n2ccnc2)cc1)C(c1ccccc1)S(=O)(=O)O (centres undefined) .
Solution: < 4.00

meta.source: ChEMBL document CHEMBL4715770
